I'd appreciate it if you could supply EC50 of Phagocytosis assay, IgG4, Kappa; OVCAR3 values for the items below.
Target: T1, human CD24 on cells (human, UniProt P25063 27-59)
T1 chain (looked up): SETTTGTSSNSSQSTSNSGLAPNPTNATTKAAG
Test: cell-based or functional assay
One number for each entry, in µg/mL.

| binder | result unit | observed value |
| --- | --- | --- |
| 59-G9D7, IgG4, Kappa (antibody, V domains shown) VH: QVQLQQPGADLVKPGASVKLSCKASGYTVTTYWMHWVRQRPGRGLEWIGRIDPNSGETKYSEKFKNKATLTVDRPSSTAYMQLSSLTFEDSAVYFCAIYYYLNNFLFDYWGQGTTLTVSS VL: ENVLTQSPAIMSASPGEKVTMTCRASSSVSSSYLHWYQKKSGASPKLWIYSTSNLASGVPARFSGSGSGTSYSLTISSVEAEDAATYYCQQYSGYPLTFGAGTKLELK | µg/mL | 1.26 |
| 80-F10A6, IgG4, Kappa (antibody, V domains shown) VH: EVQLQQSGPVLVNPGASVKISCKASGYSFTGYYMNWVKQSPEKSLEWIGEVNPITGDTTYSQNFKAKTTLTVDRSSSTAYMQLKSLTSEDSAVYYCTRRDYGTSLDYWGQGTTLTVSS VL: DVQITQSPSYLAASPGETITIHCRASKSISRYLAWYQEKPGKINTLLIYAGSTLHLGIPSRFSGSGSGTDFTLTISSLELEDFAMYYCQQHNEYPITFGAGTKLELK | µg/mL | 0.37 |
| 45-H1E4, IgG4, Kappa (antibody, V domains shown) VH: QIQLVQSGPELKKPGETVKISCKASGYTFTTYGMSWMKQAPGKGLKWMGWINTYSGVPAYADDFKGRFAFSLDTSASTAYLQINNLKNEDTATYFCARSGYPWSPHSYSTDYWGQGISVTVSS VL: DVLLTQTPLSLPVSLGDQASISCKSSQSIVHSNGNTYLEWYLQKPGQSPKRLIYKVSNRFSGVPDRFSGSGSGTDFTLKISRVEAEDLGVYYCFQGSHVPWTFGGGTKLEIK | µg/mL | 3.35 |
| 79-E3H3, IgG4, Kappa (antibody, V domains shown) VH: EVQLQQSGPELVKPGASVKISCKASGYEFTGYHMNWVKQSPEKSLEWIGEINPITSDKTFNQKFKAKATLTVDRSSSTAYMHLKSLTSEDSAVYYCARRDYDTSLDYWGQGTTLTVSS VL: DVQITQSPSYLAASPGETITIYCRASKSISKYLAWYQEKPEKTNRLLIYAGSTLQSGIPSRFRGSGSGKDFTLTVSGLEPEDFAMYYCQQHNEYPLTFGAGTKLELK | µg/mL | 0.42 |
| 63-B10B9, IgG4, Kappa (antibody, V domains shown) VH: EVQLQQSGPELVKPGASVKISCKASGYSFTGYYMNWVKQSPEKSLEWIGEINPITGGTTYNQKFRAKATLTVDRSSSTAYMQLKSLTSEDSAVYYCTKRDYDTSLDYWGQGTTLIVSS VL: DVQITQSPSYLAAFPGETITINCRASKSIKKYLAWYQEKPGKTNNLLIYSGSTLQSGIPSRFSGSGTGTDFTLTISSLEPEDFAMYYCQQHNEYPLTFGAGTKLELK | µg/mL | 9.85 |

Switching to the query record.
Inquiry: Fill in: EC50 of Phagocytosis assay, IgG4, Kappa; OVCAR3 of 74-H4C6 (4451), IgG4, Kappa (antibody, V domains shown) VH: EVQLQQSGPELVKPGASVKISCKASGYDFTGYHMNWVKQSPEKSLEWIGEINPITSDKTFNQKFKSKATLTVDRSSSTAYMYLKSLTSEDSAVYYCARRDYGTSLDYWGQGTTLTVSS VL: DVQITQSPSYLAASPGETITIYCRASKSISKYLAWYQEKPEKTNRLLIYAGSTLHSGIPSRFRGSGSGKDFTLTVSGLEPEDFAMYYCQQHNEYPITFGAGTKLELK is ___
Reply text: 0.16
